target: α-glucosidase (Saccharomyces cerevisiae); construct: purchased; experiment: Enzymatic kinetics of α-glucosidase (Lineweaver–Burk, Dixon and secondary plots); format: biochemical; details: inhibition constant, from Dixon plots
REPORTED ENDPOINT: pKi
Convention used: pKi is expressed as -log10 of the molar concentration.

[Q] Could you tell me which pKi is on file for CC(C)=CCc1cc(/C=C2\OC(=O)C(c3cc4c(c(CC=C(C)C)c3)OC(C)(C)C=C4)=C2O)ccc1O [Compound 1, Aspulvinone V] ?
[A] 5.18

[Q] Now give it for CC(C)=CCc1cc(/C=C2\OC(=O)C(c3ccc(O)c(CC=C(C)C)c3)=C2O)ccc1O [Compound 4, aspulvinone H] too.
[A] 5.18

---

biological target: α-glucosidase (Saccharomyces cerevisiae, UniProt P53341); construct: purchased; assay: Fluorescence quenching analysis; type: binding; details: binding constants (Ka), order of magnitude, at the three temperatures
Sequence (P53341 whole entry): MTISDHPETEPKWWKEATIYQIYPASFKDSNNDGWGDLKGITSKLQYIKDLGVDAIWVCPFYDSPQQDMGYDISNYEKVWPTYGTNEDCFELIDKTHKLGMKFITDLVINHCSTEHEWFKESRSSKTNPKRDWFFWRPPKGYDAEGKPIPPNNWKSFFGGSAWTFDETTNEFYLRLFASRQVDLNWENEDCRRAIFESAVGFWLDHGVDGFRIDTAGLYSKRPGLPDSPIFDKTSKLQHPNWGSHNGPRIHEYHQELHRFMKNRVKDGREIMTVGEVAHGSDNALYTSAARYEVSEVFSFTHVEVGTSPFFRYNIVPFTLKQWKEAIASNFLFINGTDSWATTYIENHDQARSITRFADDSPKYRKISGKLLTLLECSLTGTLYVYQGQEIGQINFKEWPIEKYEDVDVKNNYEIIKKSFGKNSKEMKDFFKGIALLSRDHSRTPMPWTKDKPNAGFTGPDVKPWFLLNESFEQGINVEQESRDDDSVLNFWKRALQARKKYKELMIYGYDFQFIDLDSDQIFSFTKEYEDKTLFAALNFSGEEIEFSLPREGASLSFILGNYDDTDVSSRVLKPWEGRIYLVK
REPORTED ENDPOINT: Kd

[Q] Item: CC(C)=CCc1cc(/C=C2\OC(=O)C(c3ccc(O)c(CC=C(C)C)c3)=C2O)ccc1O Test system: α-glucosidase (Saccharomyces cerevisiae, UniProt P53341) Read-out: Kd Value: ?
[A] ~100 µM

---

target: α-glucosidase (Saccharomyces cerevisiae, UniProt P53341); construct: purchased; assay: Fluorescence quenching analysis; format: binding; conditions: Ka, binding constant, 31 °C
REPORTED ENDPOINT: pKd
Convention used: pKd is expressed as -log10 of the molar concentration.

[Q] Could you tell me which pKd is on file for CC(C)=CCc1cc(/C=C2\OC(=O)C(c3ccc(O)c(CC=C(C)C)c3)=C2O)ccc1O ?
[A] 4.90

---

Reported IC50 values for a set of compounds
molecular target: α-Glucosidase (EC:3.2.1.20, MAL12) (Saccharomyces cerevisiae, UniProt P53341); construct: purchased; experiment: biochemical
Sequence (P53341 whole entry): as above
The reply should be a number in µM, with the unit left off.

1. CC(C)=CCc1cc(C2=C(O)C(=Cc3ccc4c(c3)CC(C(C)(C)O)O4)OC2=O)ccc1O (stereo not shown) [Compound 2, Aspulvinone W] | 32
2. CC1(C)CCc2cc(C3=C(O)C(=Cc4ccc5c(c4)CC(C(C)(C)O)O5)OC3=O)ccc2O1 (stereo not shown) [Compound 3, Aspulvinone X] | 38.6

[Q] Could you tell me which IC50 is on file for CC(C)=CCc1cc(/C=C2\OC(=O)C(c3cc(CC=C(C)C)c(O)c(CC=C(C)C)c3)=C2O)ccc1O [Compound 6, aspulvinone R] ?
[A] 10.8

[Q] Now give it for CC(C)(O)[C@H]1Cc2cc(/C=C3\OC(=O)C(c4ccc5c(c4)C[C@H](C(C)(C)O)O5)=C3O)ccc2O1 [Compound 5, aspulvinone J-CR] too.
[A] 44.3

---

Target: α-glucosidase (Saccharomyces cerevisiae)
Construct: purchased
Assay: Fluorescence quenching analysis
Assay type: binding
Conditions: Ka, binding constant, 20 °C
Experimental: α-Glucosidase (1 μM) was mixed with different concentrations of inhibitors (0–15 μM) at 20, 31, and 37°C, respectively, and the fluorescence spectra of mixed solutions were determined after equilibration for 5 min at an excitation wavelength of 250 nm. Both the excitation and emission slits were set at 10 nm. […]
REPORTED ENDPOINT: Kd (µM)
The reply should be a number in µM, with the unit left off.

[Q] Item: CC(C)=CCc1cc(/C=C2\OC(=O)C(c3ccc(O)c(CC=C(C)C)c3)=C2O)ccc1O Test system: α-glucosidase (Saccharomyces cerevisiae) Read-out: Kd Value: ?
[A] 34.5

FYI, the data here is from paper PMC8416056.
